Some molecules, each annotated with its measured IC50.
molecular target: Gamma-secretase; assay: Inhibition of gamma-secretase in human SH-SY5Y cells co-expressing APP C-terminal fragment SPA4CT assessed as inhibition of amyloid beta 40 production by electrochemiluminescent assay; type: cell-based

Solved cases (3 shown):
{"columns": ["molecule", "target of assay", "IC50"],
 "data": [
  ["O=C(N1CC[C@](c2cc(F)ccc2F)(S(=O)(=O)c2ccc(Cl)cc2)[C@H](O)C1)C1(C(F)(F)F)CC1 (single isomer, unassigned; 12c)", "Gamma-secretase", "10 nM"],
  ["O=C(c1cnc(Cl)nc1C(F)(F)F)N1CCC(c2cc(F)ccc2F)(S(=O)(=O)c2ccc(Cl)cc2)CC1", "Gamma-secretase", "> 10000 nM"],
  ["O=C(N1CC[C@](c2cc(F)ccc2F)(S(=O)(=O)c2ccc(Cl)cc2)[C@H](O)C1)C1(C(F)(F)F)CC1 (racemic)", "Gamma-secretase", "40 nM"]
]}

Query block: Could you please provide reported IC50 for `O=C(c1cnc(Cl)cc1C(F)(F)F)N1CCC(c2cc(F)ccc2F)(S(=O)(=O)c2ccc(Cl)cc2)CC1` ? Thanks!
Result block: 1090 nM

Query block: Could you please provide reported IC50 for `COc1ccc2c(C(=O)N3CCC(c4cc(F)ccc4F)(S(=O)(=O)c4ccc(Cl)cc4)CC3)cn(C)c2c1` ? Thanks!
Result block: 90 nM

Query block: Could you please provide reported IC50 for `O=C(N1CCC(c2cc(F)ccc2F)(S(=O)(=O)c2ccc(Cl)cc2)CC1)C1(C(F)(F)F)CC1` ? Thanks!
Result block: 30 nM

Query block: Could you please provide reported IC50 for O=C(N1CC[C@](c2cc(F)ccc2F)(S(=O)(=O)c2ccc(Cl)cc2)[C@@H](O)C1)C1(C(F)(F)F)CC1 (racemic) ? Thanks!
Result block: 250 nM

Query block: Could you please provide reported IC50 for `O=C(c1ccccc1C(F)(F)F)N1CCC(c2cc(F)ccc2F)(S(=O)(=O)c2ccc(Cl)cc2)CC1` ? Thanks!
Result block: 260 nM

====

assay: Lipophilicity, log D of the compound; format: physicochemical; conditions: octanol/water
Some compounds, each annotated with its measured logD.
Number only, no unit.

Solved cases (2 shown):
{"columns": ["compound", "property measured", "experimental value"],
 "data": [
  ["Cn1cc(C(=O)N2CCC(c3cc(F)ccc3F)(S(=O)(=O)c3ccc(Cl)cc3)CC2)c(C(F)(F)F)n1", "logD", 3.36],
  ["O=C(N1CCC(c2cc(F)ccc2F)(S(=O)(=O)c2ccc(Cl)cc2)CC1)C1(C(F)(F)F)CC1", "logD", 3.76]
]}

The record that follows has no logD shown yet.
Query block: Could you please provide reported logD for O=C(N1CC[C@](c2cc(F)ccc2F)(S(=O)(=O)c2ccc(Cl)cc2)[C@H](O)C1)C1(C(F)(F)F)CC1 (racemic) ? Thanks!
Result block: 3.27

====

assay: Plasma clearance in Sprague-Dawley rat at 0.05 mg/kg, iv; format: ADME, organism-based; parameters: dose 0.05 mg/kg, route intravenous
Some molecules, each annotated with its measured clearance.
Field format: number, assumed mL/min/kg, no unit text.

Query block: Could you please provide reported clearance for `CC(C)(O)C(=O)N1CCC(c2cc(F)ccc2F)(S(=O)(=O)c2ccc(Cl)cc2)CC1` ? Thanks!
Result block: 75.1

Query block: Could you please provide reported clearance for `O=C(c1ncccc1C(F)(F)F)N1CCC(c2cc(F)ccc2F)(S(=O)(=O)c2ccc(Cl)cc2)CC1` ? Thanks!
Result block: 80.5

Query block: Could you please provide reported clearance for `O=C(N1CCC(c2cc(F)ccc2F)(S(=O)(=O)c2ccc(Cl)cc2)CC1)C1(C(F)(F)F)CCC1` ? Thanks!
Result block: 46.2
